System: NCI-H460 lung
Test: NCI-60 one-dose screen, 48 h (100 = growth as untreated, 0 = no growth, -100 = all killed)
Details: 10 µM unless noted
The panel holds about 83,000 compounds, 20% with a hit somewhere; the sample as a whole holds those more often.
Define the label as YES when growth is strictly less than 90% and as NO in all remaining cases.

**Query** Does COc1cc(NCCCCCN=C(N)NC(N)=NC(C)C)c2ncccc2c1 have growth strictly under 90%?
**Result** YES

**Query** Now consider CCOC(=O)C(CC)n1c(=O)c2cc(OC)c(OC)cc2c2cnc3[nH]ccc3c21 (stereo unspecified) and answer again.
**Result** YES

**Query** Another molecule to look at: CC1(C)OCC2OC3(C(=O)O)OC(C)(C)OC3C2O1 (stereo unspecified)
**Result** NO

**Query** Field entry: CCOC(=O)CC(C)=N
**Result** NO

**Query** Field entry: CCc1ccccc1NC(=O)c1sc2nc3c(cc2c1N)C(=O)CCC3
**Result** YES

**Query** Consider next the molecule Cc1cc(Nc2nc(N3CCNCC3)nc3ccccc23)n[nH]1 in the same way.
**Result** NO

**Query** Record: O=[N+]([O-])c1c(F)cccc1Nc1cccc(F)c1
**Result** NO

**Query** Moving on to the next molecule: c1ccc2sc(SCCCn3ccnc3)nc2c1
**Result** NO

**Query** Follow-up item: CN(C)CCOc1ccc(-c2nc3ccc(-c4nc5ccc(N6CCN(C)CC6)cc5[nH]4)cc3[nH]2)cc1
**Result** YES

**Query** Can you handle CC(C)(C)c1nn(-c2ccccc2)c2c1CC1(CN2Cc2ccc3c(c2)OCO3)C(=O)c2ccccc2C1=O next?
**Result** NO

----------
Each entry below lists one item and its recorded growth value.
Test system: MALME-3M melanoma
Test: NCI-60 one-dose screen, 48 h (100 = growth as untreated, 0 = no growth, -100 = all killed)
Conditions: 10 µM unless noted
The panel holds about 83,000 compounds, 20% with a hit somewhere; the sample as a whole holds those more often.
Only the number, expressed in %, is required.

Look over these answered cases.
[[record]]
compound = "CN1CCN(Cc2ccc(NC(=O)c3[nH]ncc3Nc3ncnc4c3CCC4)cc2)CC1"
observed_property = "growth"
unit_of_measurement = "%"
recorded_measurement = 4.81

[[record]]
compound = "O=C1c2cc3c(cc2-c2c1c1cc(Cl)c(Cl)cc1c(=O)n2C[C@H](O)CO)OCO3"
observed_property = "growth"
unit_of_measurement = "%"
recorded_measurement = -37.4

[[record]]
compound = "O=C(CCCCN1CCOCC1)Nc1ccc(Cn2nnc3c2C(=O)c2nnn(Cc4ccc(NC(=O)CCCCN5CCOCC5)cc4)c2C3=O)cc1"
observed_property = "growth"
unit_of_measurement = "%"
recorded_measurement = -86

[[record]]
compound = "NS(=O)(=O)N(c1cc(C(F)(F)F)cc(C(F)(F)F)c1)C1CCN(Cc2ccc(F)cc2)CC1"
observed_property = "growth"
unit_of_measurement = "%"
recorded_measurement = 29

[[record]]
compound = "C[C@@H]1CC[C@@H]2[C@@H]1[C@H](OC(=O)/C=C/c1ccccc1)[C@]1(c3ccccc3)C[C@@H](OC(=O)CO)[C@@]2(C)O1"
observed_property = "growth"
unit_of_measurement = "%"
recorded_measurement = 108

[[record]]
compound = "O=C1c2c[n+](Cc3ccccc3)ccc2-c2nc3ccccc3c3ccnc1c23"
observed_property = "growth"
unit_of_measurement = "%"
recorded_measurement = -95.7

[[record]]
compound = "O=C1Nc2ccc(Br)cc2C12CC(c1ccccc1)=NN2 (centres undefined)"
observed_property = "growth"
unit_of_measurement = "%"
recorded_measurement = 37.9

[[record]]
compound = "CN1CCN(Cc2ccc(NC(=O)c3[nH]ncc3Nc3ncnc4[nH]ccc34)cc2)CC1"
observed_property = "growth"
unit_of_measurement = "%"
recorded_measurement = -23.3


**Query** Hello, I am looking for reported growth with MALME-3M melanoma for COc1ccc(-c2nc(Nc3cc(C)[nH]n3)c3ccccc3n2)cc1 . Could you help?
**Result** 79.9

**Query** Thanks! And C=CCSc1nnc(-c2ccc(C(C)(C)C)cc2)n1-c1cccc(C(F)(F)F)c1 ?
**Result** 66.1

**Query** What do we get for OCCNCCNc1c2ccccc2nc2ccccc12 ?
**Result** 42.1

**Query** Quick one: COc1cccc(-c2nc3sccn3c2-c2ccnc(NCCCNS(=O)(=O)c3ccc(Cl)cc3)c2)c1
**Result** 74.1

**Query** CSc1ncnc2c1ncn2C1CCCO1 (centres undefined) ?
**Result** 93.6

**Query** Same question for CC/C(=C(\c1ccc(O)cc1)c1ccc(OCCN(C)CCN(C)C(=O)CCCCC(=O)c2c(C)[nH]c(/C=C3\N=C(c4ccc[nH]4)C=C3OC)c2C)cc1)c1ccccc1 please.
**Result** 116

**Query** Please answer likewise for CC1=C(NCCN2CCCC2)C(=O)c2c(OCc3ccc(F)c(Cl)c3)cccc2C1=O
**Result** 44.3

**Query** How about Cn1cc(-c2ccc(-c3cn(C)c4ncccc34)[nH]2)c2cccnc21 ?
**Result** 86.5

**Query** Same read-out for COc1cccc(/C=C2/C(=O)N(Cc3ccco3)SC2=S)c1OC ?
**Result** 98.8

**Query** Next compound up: C=C1CCC2C3(C)COC(c4ccccc4Br)OC3CCC2(C)C1C/C=C1/C(=O)OCC1OC(C)=O (centres undefined)
**Result** -44.6

**Query** Proceed to COc1ccc(-n2cc(-c3ccccc3)c3c(SCC(=O)N/N=C/c4ccc([N+](=O)[O-])cc4)ncnc32)cc1
**Result** 110
